Each recorded value in this set is attributed to patent US20240018237A1.

# assay.target: T1, human ROR1 (full-length, on the cell surface) (human, UniProt Q01973 30-937)
# T1 construct: whole, on cells; the tumour cell lines carry their own ROR1; also called Ba/F3-ROR1 cells; Jeko-1
# T1 sequence (Q01973 30-937): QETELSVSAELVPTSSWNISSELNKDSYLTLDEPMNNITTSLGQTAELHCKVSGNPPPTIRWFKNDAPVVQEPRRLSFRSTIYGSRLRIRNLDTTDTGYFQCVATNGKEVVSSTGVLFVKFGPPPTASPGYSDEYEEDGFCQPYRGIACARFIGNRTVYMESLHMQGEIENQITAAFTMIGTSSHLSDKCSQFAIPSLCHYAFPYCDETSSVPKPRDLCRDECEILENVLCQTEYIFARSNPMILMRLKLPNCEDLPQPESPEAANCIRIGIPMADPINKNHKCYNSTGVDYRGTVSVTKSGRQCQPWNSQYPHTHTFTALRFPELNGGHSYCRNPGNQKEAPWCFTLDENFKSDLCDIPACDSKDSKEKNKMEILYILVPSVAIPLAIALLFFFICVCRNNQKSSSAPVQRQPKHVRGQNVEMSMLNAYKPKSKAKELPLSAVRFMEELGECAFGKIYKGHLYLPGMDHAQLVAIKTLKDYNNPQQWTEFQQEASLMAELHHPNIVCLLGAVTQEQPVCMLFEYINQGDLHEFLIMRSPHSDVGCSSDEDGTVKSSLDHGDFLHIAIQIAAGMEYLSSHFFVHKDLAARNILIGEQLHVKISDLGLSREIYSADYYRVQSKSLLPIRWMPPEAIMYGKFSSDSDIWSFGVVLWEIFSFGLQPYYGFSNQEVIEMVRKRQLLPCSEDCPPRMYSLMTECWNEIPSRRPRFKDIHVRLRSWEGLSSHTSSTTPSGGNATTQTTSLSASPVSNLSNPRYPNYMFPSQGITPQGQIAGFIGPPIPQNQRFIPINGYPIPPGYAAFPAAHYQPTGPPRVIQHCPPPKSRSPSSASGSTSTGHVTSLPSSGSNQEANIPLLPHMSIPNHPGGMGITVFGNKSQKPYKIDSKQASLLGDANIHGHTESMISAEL
# measurement.protocol: flow cytometry, Ba/F3-ROR1 cells
The entries below come with measured pEC50 values attached.
pEC50 (log units): -log10 of the concentration in mol/L.

Recorded result, 3D8-Hu85 (antibody, human IgG1, kappa, V domains shown, humanized, human IgG1 / kappa) VH: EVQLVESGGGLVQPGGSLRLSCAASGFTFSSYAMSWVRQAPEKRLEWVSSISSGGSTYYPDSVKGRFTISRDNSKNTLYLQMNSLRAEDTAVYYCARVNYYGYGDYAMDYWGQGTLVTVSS VL: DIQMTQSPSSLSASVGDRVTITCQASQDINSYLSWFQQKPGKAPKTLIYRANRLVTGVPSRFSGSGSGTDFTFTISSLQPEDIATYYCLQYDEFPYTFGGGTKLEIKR , pEC50: 9.60

Quick note, pEC50 for 38F8-Hu54 (antibody, human IgG1, kappa, V domains shown, humanized, human IgG1 / kappa) VH: EVQLVESGGGLVQPGGSLRLSCAASGFTFSNYAMSWVRQAPEKRLEWVASISSGGPTYYPDSVKGRFTVSRDNSKNTLYLQMNSLRAEDTAVYYCARGYRYDVNWYFDVWGAGTMVTVSS VL: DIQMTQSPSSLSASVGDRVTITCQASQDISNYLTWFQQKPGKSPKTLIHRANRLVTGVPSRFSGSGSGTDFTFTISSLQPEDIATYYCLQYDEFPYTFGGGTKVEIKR landed at 8.80

Reported pEC50 of 3D8-Hu96 (antibody, human IgG1, kappa, V domains shown, humanized, human IgG1 / kappa) VH: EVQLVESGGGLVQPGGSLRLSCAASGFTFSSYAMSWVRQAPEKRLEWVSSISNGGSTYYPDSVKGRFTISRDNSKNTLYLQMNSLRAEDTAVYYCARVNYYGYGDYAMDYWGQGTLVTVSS VL: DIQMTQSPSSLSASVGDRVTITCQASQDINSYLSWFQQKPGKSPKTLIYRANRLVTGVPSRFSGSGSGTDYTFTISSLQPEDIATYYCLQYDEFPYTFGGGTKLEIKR : 9.52

The reported pEC50 of the binder 3D8-Hu26 (antibody, human IgG1, kappa, V domains shown, humanized, human IgG1 / kappa) VH: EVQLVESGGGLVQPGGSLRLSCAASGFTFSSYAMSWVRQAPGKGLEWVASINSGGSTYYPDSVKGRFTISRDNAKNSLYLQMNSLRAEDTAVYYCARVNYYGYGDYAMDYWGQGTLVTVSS VL: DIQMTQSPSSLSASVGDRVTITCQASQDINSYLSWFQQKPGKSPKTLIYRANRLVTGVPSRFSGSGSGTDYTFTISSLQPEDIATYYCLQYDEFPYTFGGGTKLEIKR was 9.54

Lab note: 3D8-Hu86 (antibody, human IgG1, kappa, V domains shown, humanized, human IgG1 / kappa) VH: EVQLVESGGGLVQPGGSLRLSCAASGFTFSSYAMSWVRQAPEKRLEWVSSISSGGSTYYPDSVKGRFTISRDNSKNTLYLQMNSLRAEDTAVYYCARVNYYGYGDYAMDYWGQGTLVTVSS VL: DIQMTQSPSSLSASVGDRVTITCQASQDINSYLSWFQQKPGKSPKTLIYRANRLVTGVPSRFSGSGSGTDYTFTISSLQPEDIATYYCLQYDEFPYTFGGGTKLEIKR gave pEC50 of 9.52
